PROTOCOL DETAILS: yeast display, Sf9 membrane polyspecificity reagent, FACS + sequencing; frameworks hold sequencing errors
PARAMETER MEASURED: polyreactivity (PSR sort gate)

Examples with answers:
1. QVQLVESGGGLVQAGGSLRLSCAASGYTFSYYAMGWYRQAPGKERELVAAITSTGSTYYADSVKGRFTISRDNAKNTDYFQMNSLKPEDTEVYYCNVDVATVGPVDYWGQGTQVTVSS :: low polyreactivity
2. QVQLVESGGGIVQAGGSLRLSCAASGRIFGTYGMGWYRQAPGKERELVAAISGGGSTNYADSVKGRFTISRDNAKNTVYLQMNSLKPEDTAVYYCAARYPPYRSWYSYDYWGHGTQVTVSS :: low polyreactivity
3. QVQLVESGGGLVQAGGSLRLSCAASGRIFFTYAMGWYRQAPGKERELVAAIDRSGTSTYYADSVKGRFTISRDNAKNTVYLQMNRLKPEDTAVYNCAARPNPNYDEMDYWGQGTQVNVSS :: low polyreactivity
4. QVQLVESGGGLVQAGGSLRLSCAASVRIFYGYTMGWYRQAPGKERELVASIDYSTGRTYYADSVKGRFTISRDNAKNTVYLLMNSLKPEDTAVYYCNADPNYSFLRYDYWGQGTQVTVSS :: high polyreactivity
5. QVQLVESGGGLVQAGGSLRLSCAATGNIFTPYTMGWYRQAPGKERELVASINNAGTTKYADSVKGRFTISRDNAKTTVYLQMNSLKPEDTAVYYCAAQRRHALSSYPKHYYWGQGTQVTVSS :: low polyreactivity
6. QVQLVESGGGLVQAGGSLRLSSAASGRTFWRYGMGWYRQAPGKERELVAAITDSGDSTYYADSVKGRFTISRDNAKNTVYLQMNSLKPEDTAVYYCAASDVVFALNGYYPGEDDYWGQGTQVTVSS :: low polyreactivity
7. QVQLVDSGGGLVQAGGSLRLSCAASGIILYPYAMGWYRQAPGKERELVAAISWSGGSTYYADSVKGRFTISRDNAKNTVYLQMNSLKPEDTAVYYCAARPRRRYYGYDSWGQGTQVTVSS :: high polyreactivity
8. QVQLVESGGGLVQAGGSLRLSCAASGSTFPKNAKGWYRPAPGKERELVAAINTGGSTYYADSVKGRFTISRDNAKNTVYLQMNSLKPEDTAVYYCAARDNYHRDVGHPYDYWGQGTQVTVSS :: low polyreactivity

# input Suppose we examine the sequence QVQLVESGGGLVQAGGSLRLSCAASGITFVPNAMGWYRQAPGKERELVARIDNGVSTNYADSVKGRFTISRDNAKNTVYLQMNSLKPEDTAVYYCAKDGYWGDWDQYYWGQGTQVTVSS ; what polyreactivity (PSR sort gate) value has been reported?
# output low polyreactivity

# input Also, QVQLVESGGGLVQAGGSLRLSCAASGFTFDNYGMGWYRQAPGKERDLVAAISTSGGSTYYADSVKGRFTISRDNEKNTVYFQMNSLKPEDTADYYCNVDFYEYSSVSYDYWGQGTQVTVSS please.
# output high polyreactivity

# input Also, QVQLVESGGGLVQAGGSLRLSCAASGRIFAGYAMGWYRQAPGKEREFVATITSRAGNTYYADSVKGRFTISRDNAKNTVYLQMNSLKPEDTGVYYCAARSRGWAGYYYWYKDYSWGQGTQVTVSS please.
# output high polyreactivity

# input Also, QVQLVESGGGLVQAGGSLRLSCAASGRTIRGYAMGWYRQAPGKERELVAAITRSGGSTFADSVKGRFTISRDNAKNTVYLQMNSLKPEDTAVYYCAADRGYKYYYWGQGTQVTVSS please.
# output high polyreactivity
